// provenance: patent US10072001B2

- targetUnderTest: IKKε (Homo sapiens (Human))
- Sequence (Q14164 whole entry): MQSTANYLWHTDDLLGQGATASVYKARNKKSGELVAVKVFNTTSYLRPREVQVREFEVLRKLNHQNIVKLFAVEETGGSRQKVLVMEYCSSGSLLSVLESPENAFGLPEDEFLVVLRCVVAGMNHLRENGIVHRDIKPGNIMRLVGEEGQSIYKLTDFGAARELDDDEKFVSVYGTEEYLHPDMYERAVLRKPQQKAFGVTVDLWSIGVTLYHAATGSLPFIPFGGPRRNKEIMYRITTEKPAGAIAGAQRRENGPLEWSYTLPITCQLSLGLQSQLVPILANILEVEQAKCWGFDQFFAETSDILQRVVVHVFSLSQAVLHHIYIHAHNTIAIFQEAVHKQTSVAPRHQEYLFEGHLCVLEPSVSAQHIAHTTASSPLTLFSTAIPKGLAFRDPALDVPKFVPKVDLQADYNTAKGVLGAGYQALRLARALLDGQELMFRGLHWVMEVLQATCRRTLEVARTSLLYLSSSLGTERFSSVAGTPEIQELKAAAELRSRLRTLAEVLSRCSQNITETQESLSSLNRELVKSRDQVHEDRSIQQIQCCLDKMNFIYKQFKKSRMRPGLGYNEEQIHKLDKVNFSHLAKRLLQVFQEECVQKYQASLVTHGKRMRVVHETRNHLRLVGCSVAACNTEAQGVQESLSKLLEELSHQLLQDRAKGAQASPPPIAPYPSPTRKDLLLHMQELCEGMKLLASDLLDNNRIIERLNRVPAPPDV
- assayProtocol: TR-FRET kinase assay, IKKε
- details: full length recombinant IKKε 0.3 nM, 2x Km ATP, 1 μM peptide, 240 min at 25° C.; geometric mean of minimum four determinations
In this section, each of the compounds is paired with its reported pIC50.
Expect pIC50 as a plain number equal to -log10 of the molar concentration.

For IKKε (Homo sapiens (Human)), give pIC50 of the listed compound: CC(O)C(=O)N1CC[C@@H](Oc2ccc(-c3ccnc4[nH]c(-c5ccc(N6CCOCC6)cc5)cc34)cc2C#N)C1 (stereo partly drawn) [Example 27]
7.87

For IKKε (Homo sapiens (Human)), give pIC50 of the listed compound: N#Cc1cc(-c2ncnc3[nH]c(-c4ccc5c(c4)NCCO5)cc23)ccc1OC1CCOCC1 [Example 191]
7.90

For IKKε (Homo sapiens (Human)), give pIC50 of the listed compound: COC(=O)c1ccc(-c2cc3c(-c4ccc(OC5CCOCC5)c(C#N)c4)ccnc3[nH]2)cc1 [Example 238]
6.00

For IKKε (Homo sapiens (Human)), give pIC50 of the listed compound: N#CCC(=O)N1CC[C@H](Oc2ccc(-c3ccnc4[nH]c(-c5ccc(N6CCOCC6)cc5)cc34)cc2C#N)C1 [Example 24]
6.49

For IKKε (Homo sapiens (Human)), give pIC50 of the listed compound: COc1ccc(-c2cc3c(-c4ccc(OC5CCN(C(=O)CO)CC5)c(C#N)c4)ncnc3[nH]2)cc1 [Example 126]
8.48

For IKKε (Homo sapiens (Human)), give pIC50 of the listed compound: N#Cc1cc(-c2ncnc3[nH]c(-c4ccc(N5CCOCC5)cc4)cc23)ccc1OC1CCOCC1 [Example 101]
8.09

For IKKε (Homo sapiens (Human)), give pIC50 of the listed compound: N#Cc1cc(-c2ncnc3[nH]ccc23)ccc1OC1CCOCC1 [Example 108]
5.65

For IKKε (Homo sapiens (Human)), give pIC50 of the listed compound: N#Cc1cc(-c2ccnc3[nH]c(-c4ccc(N5CCOCC5)cc4)cc23)ccc1N1CC(O)C1 [Example 193]
7.81

For IKKε (Homo sapiens (Human)), give pIC50 of the listed compound: N#Cc1cc(-c2ccnc3[nH]c(-c4ccc(N5CCOCC5)cc4)nc23)ccc1OC1CCN(C(=O)CO)CC1 [Example 198]
8.47

For IKKε (Homo sapiens (Human)), give pIC50 of the listed compound: N#Cc1nc(-c2ccnc3[nH]c(-c4ccc(N5CCOCC5)cc4)cc23)ccc1OC1CCOCC1 [Example 86]
7.86

For IKKε (Homo sapiens (Human)), give pIC50 of the listed compound: N#Cc1cc(-c2ccnc3[nH]c(-c4ccc(N5CCOCC5)cc4)cc23)ccc1O[C@H]1CCN(C(=O)CO)C1 [Example 23]
7.19

For IKKε (Homo sapiens (Human)), give pIC50 of the listed compound: CC(C)(C)OC(=O)N1CCC(Oc2ccc(-c3ncnc4[nH]c(-c5ccc(N6CCOCC6)c(F)c5)nc34)cc2C#N)CC1 [Example 245]
6.00

For IKKε (Homo sapiens (Human)), give pIC50 of the listed compound: N#Cc1cc(-c2ncnc3[nH]c(-c4cccc(CN5CCOCC5)c4)cc23)ccc1OC1CCN(C(=O)CO)CC1 [Example 184]
8.46

For IKKε (Homo sapiens (Human)), give pIC50 of the listed compound: COc1ccc(-c2nc3c(-c4ccc(OC5CCOCC5)c(C#N)c4)ncnc3[nH]2)cc1 [Example 146]
7.63

For IKKε (Homo sapiens (Human)), give pIC50 of the listed compound: N#Cc1cc(-c2ccnc3[nH]c(-c4ccc(N5CCOCC5)cc4)nc23)ccc1O[C@@H]1CCN(C(=O)CO)C1 [Example 196]
7.89

For IKKε (Homo sapiens (Human)), give pIC50 of the listed compound: Cc1noc(C)c1-c1cc2c(-c3ccc(OC4CCOCC4)c(C#N)c3)ccnc2[nH]1 [Example 216]
6.92

For IKKε (Homo sapiens (Human)), give pIC50 of the listed compound: CC(C)(O)c1ccc(-c2cc3c(-c4ccc(OC5CCOCC5)c(C#N)c4)c(F)cnc3[nH]2)cc1 [Example 173]
6.94

For IKKε (Homo sapiens (Human)), give pIC50 of the listed compound: CN(C)CC(=O)N1CC[C@@H](Oc2ccc(-c3ccnc4[nH]c(-c5ccc(N6CCOCC6)cc5)cc34)cc2C#N)C1 [Example 30]
6.87

For IKKε (Homo sapiens (Human)), give pIC50 of the listed compound: N#Cc1cc(-c2ccnc3[nH]c(-c4cccc(N5CCOCC5)c4)cc23)ccc1OC1CCOCC1 [Example 78]
7.40
